# Lookup of reported pIC50 keyed by entry
Tested on: K562
Assay: In vitro toxicity which caused 50% decrease in [14C]- leucine incorporation by the K-562 cells in culture.
Format: functional
Measurement Conditions: Homo sapiens, read-out: ID50 (the source's name)
pIC50: −log10 of the molar value.

Record `Nc1nc(Br)nc2c1ncn2[C@@H]1C[C@@H](O)[C@H](CO)O1` . Reported pIC50: 4.08

Record `CN(C)c1nc(N)c2ncn([C@@H]3C[C@@H](O)[C@H](CO)O3)c2n1` . Reported pIC50: < 3.52

Record `CSc1nc(SC)c2ncn([C@@H]3C[C@@H](O)[C@H](CO)O3)c2n1` . Reported pIC50: < 3.52

Record `CNc1nc(SC)nc2c1ncn2[C@@H]1C[C@@H](O)[C@H](CO)O1` . Reported pIC50: < 3.52

Record `CN(C)c1nc(Br)nc2c1ncn2[C@@H]1C[C@@H](O)[C@H](CO)O1` . Reported pIC50: < 3.52

Record `CSc1nc(N)c2ncn([C@@H]3C[C@@H](O)[C@H](CO)O3)c2n1` . Reported pIC50: < 3.52

Record `CNc1nc(Br)nc2c1ncn2[C@@H]1C[C@@H](O)[C@H](CO)O1` . Reported pIC50: 3.96

Record `CSc1nc(N(C)C)c2ncn([C@@H]3C[C@@H](O)[C@H](CO)O3)c2n1` . Reported pIC50: < 3.52
